Target: T1, interleukin 18 binding protein (IL-18BP) (UniProt O95998 31-194)
T1 sequence (looked up): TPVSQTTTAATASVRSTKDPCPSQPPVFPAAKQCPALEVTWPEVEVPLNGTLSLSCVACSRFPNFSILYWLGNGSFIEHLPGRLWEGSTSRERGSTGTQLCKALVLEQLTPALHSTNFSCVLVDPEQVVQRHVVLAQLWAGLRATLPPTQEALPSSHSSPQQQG
Test: cell-based or functional assay
assayEndpoint: Ratio (-BP/+BP), DF-10000
Format: numeric value only, no unit, no commentary.

>>> val("IL-18 variant S36W, D37E, D40F, N41I, K53D, S55N (ligand) YFGKLESKLSVIRNLNDQVLFIDQGNRPLFEDMTDWEMRFIAPRTIFIISMYDDNQPRGMAVTISVKSEKISTLSSENKIISFKEMNPPDNIKDTKSDIIFFQRSVPGHDNKMQFESSSYEGYFLASEKERDLFKLILKKEDELGDRSIMFTVQNED")
0.68

Continue with the next binder.
[Q] Please report Ratio (-BP/+BP), DF-10000 for the following binder: IL-18 variant T34E, N41D, K53N, S55R (ligand) YFGKLESKLSVIRNLNDQVLFIDQGNRPLFEDMEDSDMRDDAPRTIFIISMYNDRQPRGMAVTISVKSEKISTLSSENKIISFKEMNPPDNIKDTKSDIIFFQRSVPGHDNKMQFESSSYEGYFLASEKERDLFKLILKKEDELGDRSIMFTVQNED
[A] 1.42
